protocol.details: Isothermal titration calorimetry (ITC), F^− recognition
Type: binding
condition.info: X^− = F^−, DMSO, 298 K
property.name: ΔG1 (kcal/M)

1) O=C(Nc1cccc(NC(=O)c2cccc(C(=O)Nc3cccc(NC(=O)c4ccncc4)c3)c2)c1)c1ccncc1 [CR, reference compound]: -3.28
2) O=C(Nc1cccc(NC(=O)c2cccc(C(=O)Nc3cccc(NC(=O)c4ccc(N5C(=O)c6ccc7c8c(ccc(c68)C5=O)C(=O)N(c5ccncc5)C7=O)cc4)c3)c2)c1)c1ccc(N2C(=O)c3ccc4c5c(ccc(c35)C2=O)C(=O)N(c2ccncc2)C4=O)cc1 [LR]: -6.29
3) O=C1c2ccc3c4c(ccc(c24)C(=O)N1c1ccncc1)C(=O)N(c1ccncc1)C3=O [N1]: -5.36
4) O=C(Nc1cccc(N2C(=O)c3ccc4c5c(ccc(c35)C2=O)C(=O)N(c2ccncc2)C4=O)c1)c1cccc(C(=O)Nc2cccc(N3C(=O)c4ccc5c6c(ccc(c46)C3=O)C(=O)N(c3ccncc3)C5=O)c2)n1 [SR]: -12.20

* * *

protocol.details: Isothermal titration calorimetry (ITC), Cl^− recognition
Assay type: binding
condition.info: X^− = Cl^−; ITC, DMSO, 298 K
Procedure: Isothermal titration calorimetry (ITC) studies were conducted on a MICROCAL VP-ITC ultra-sensitive isothermal titration microcalorimeter. The VP-ITC unit, with a precise temperature control set at 25.0±0.1° C., directly measured heat evolved or absorbed in solution as a result of […] of reactant. For control, a reference cell was filled with dimethyl sulfoxide (DMSO). Titrations were run at 25° C. […]
Recorded ΔG1 values for a group of compounds are listed next.
property.name: ΔG1 (kcal/M)

1) O=C(Nc1cccc(N2C(=O)c3ccc4c5c(ccc(c35)C2=O)C(=O)N(c2ccncc2)C4=O)c1)c1cccc(C(=O)Nc2cccc(N3C(=O)c4ccc5c6c(ccc(c46)C3=O)C(=O)N(c3ccncc3)C5=O)c2)n1: -4.41
2) O=C(Nc1cccc(NC(=O)c2cccc(C(=O)Nc3cccc(NC(=O)c4ccncc4)c3)c2)c1)c1ccncc1 [CR, reference compound]: -2.71
3) O=C1c2ccc3c4c(ccc(c24)C(=O)N1c1ccncc1)C(=O)N(c1ccncc1)C3=O: -2.35
4) O=C(Nc1cccc(NC(=O)c2cccc(C(=O)Nc3cccc(NC(=O)c4ccc(N5C(=O)c6ccc7c8c(ccc(c68)C5=O)C(=O)N(c5ccncc5)C7=O)cc4)c3)c2)c1)c1ccc(N2C(=O)c3ccc4c5c(ccc(c35)C2=O)C(=O)N(c2ccncc2)C4=O)cc1: -3.42
